In this section, each of the sequences is paired with its reported protein stability index.
Assay: protein stability index of a GFP-peptide fusion (GPS, HEK-293T) (PSI 1-6); higher = more stable;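 further: 24-mer peptide tiles fused after GFP, lentivirally expressed, FACS-sorted into six equal bins by GFP/DsRed ratio, decoded by Illumina sequencing, PSI is the read-weighted mean bin number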
Conditions: treatment: MLN4924 1 uM, 8 h; c terminus: a fixed tail appended
OBSERVABLE: protein stability index

- ITEM_SEQUENCE: "WLPQQNAAYFLLSTNDKTVKLWKV [PPP2R2B]"
  OBSERVABLE: "protein stability index"
  RECORDED_VALUE: 2.6
- ITEM_SEQUENCE: "KAPYLCEATHEPAAARIRAQVPDT"
  OBSERVABLE: "protein stability index"
  RECORDED_VALUE: 4.2
- ITEM_SEQUENCE: "KVLEALKLKGAEVTYMNMTAYNKG [PLD5]"
  OBSERVABLE: "protein stability index"
  RECORDED_VALUE: 2.42
- ITEM_SEQUENCE: "GEEEAESSISSTSNEQLKVTQEPR [ZMYND11]"
  OBSERVABLE: "protein stability index"
  RECORDED_VALUE: 5.46
- ITEM_SEQUENCE: "SVSQDFPGSNLNLLTNNSGTPKDH [ETS2]"
  OBSERVABLE: "protein stability index"
  RECORDED_VALUE: 4.83
- ITEM_SEQUENCE: "EGYWLPGDEISIKKKNTNKQEMGT [ZMYND11]"
  OBSERVABLE: "protein stability index"
  RECORDED_VALUE: 4.58
- ITEM_SEQUENCE: "PTRCLPGHKEEEDGEGAGPGEQGG [ESRRA]"
  OBSERVABLE: "protein stability index"
  RECORDED_VALUE: 5.38
- ITEM_SEQUENCE: "KAFREEMKIFREKIEDFREEMWTF [CCDC70]"
  OBSERVABLE: "protein stability index"
  RECORDED_VALUE: 2.03
- ITEM_SEQUENCE: "ALAGYTGSGPIQLWQFLLELLTDK [ETS1]"
  OBSERVABLE: "protein stability index"
  RECORDED_VALUE: 2.48
- ITEM_SEQUENCE: "DVNNLDPDLRSLFSRAGISEAQLT [WAS]"
  OBSERVABLE: "protein stability index"
  RECORDED_VALUE: 3.34
- ITEM_SEQUENCE: "LVELSAENEKLHQRVEQLTRDLAG [CEBPD]"
  OBSERVABLE: "protein stability index"
  RECORDED_VALUE: 3.73
- ITEM_SEQUENCE: "FTAKHANKVKVLDAPVPDCLGVHC [FSD1]"
  OBSERVABLE: "protein stability index"
  RECORDED_VALUE: 3.04
- ITEM_SEQUENCE: "TIQKGSYTFVPWLLSFKRGSALEE [TNFSF13B]"
  OBSERVABLE: "protein stability index"
  RECORDED_VALUE: 2.04
- ITEM_SEQUENCE: "GRLGKQCRERWHNHLNPEVKKSCW [MYBL2]"
  OBSERVABLE: "protein stability index"
  RECORDED_VALUE: 2.99
- ITEM_SEQUENCE: "LATLEGDDPSLRKTHSSPALSQGH [PSD2]"
  OBSERVABLE: "protein stability index"
  RECORDED_VALUE: 4.6
- ITEM_SEQUENCE: "AGGEKGPQAFPMSRLWDSRLRHYL [DNAAF3]"
  OBSERVABLE: "protein stability index"
  RECORDED_VALUE: 2.54
- ITEM_SEQUENCE: "PTVIRNVGLGTCSMFSRVGGIIAP [SLC22A15]"
  OBSERVABLE: "protein stability index"
  RECORDED_VALUE: 2.23
- ITEM_SEQUENCE: "EAAQVVPDGLGLDEAREEEGDREV [TRIB3]"
  OBSERVABLE: "protein stability index"
  RECORDED_VALUE: 5.43
- ITEM_SEQUENCE: "RQRLLADLLHNVSQNIAAETRAED [DFFB]"
  OBSERVABLE: "protein stability index"
  RECORDED_VALUE: 4.09
- ITEM_SEQUENCE: "VKWLSFHSGYDFGYLIKILTNSNL [CNOT7]"
  OBSERVABLE: "protein stability index"
  RECORDED_VALUE: 2.86
- ITEM_SEQUENCE: "PLSLYGQLLWREFFYTAATNNPRF [CRY1]"
  OBSERVABLE: "protein stability index"
  RECORDED_VALUE: 2.5
- ITEM_SEQUENCE: "KKIPIISNAMLVGDKLKFLSMLLT [ACSBG2]"
  OBSERVABLE: "protein stability index"
  RECORDED_VALUE: 2.47
